# Test system: TK-10 renal
# experiment-notes: NCI tumour cell line growth inhibition, 48 h
Listing: TGI of selected compounds
metric: TGI (µM)

[[record]]
compound = "OC(CNc1ccnc2cc(Cl)ccc12)CNC1CCCCC1 (stereo unspecified)"
metric = "TGI"
censoring_qualifier = "="
reported_measurement = 13.6

[[record]]
compound = "C/C1=C\\CC/C(C)=C/C=C(/C(C)C)CC/C(C(=O)O)=C/CC1"
metric = "TGI"
censoring_qualifier = ">"
reported_measurement = 100

[[record]]
compound = "COC1=CC(=O)[C@]2(C)[C@H](C1=O)C(C)[C@H]2c1ccccc1 (stereo partly specified)"
metric = "TGI"
censoring_qualifier = ">"
reported_measurement = 100

[[record]]
compound = "C/C=C/C=C\\C1OC(O)([C@H](CC)C(=O)NC/C=C/C=C(\\C)[C@H](OC)C(C)C2OC(\\C=C/C=C/C=C(\\C)C(=O)c3c(O)ccn(C)c3=O)[C@H](O)[C@@H]2O)C(O)C(O)C1(C)C (stereo partly specified)"
metric = "TGI"
censoring_qualifier = ">"
reported_measurement = 100

[[record]]
compound = "CN1CCn2c(c(Sc3ccc(C(=O)NO)cc3)c3ccccc32)C1=O"
metric = "TGI"
censoring_qualifier = "="
reported_measurement = 5.29

[[record]]
compound = "CC1OC(OC2C(O[C@@H]3C[C@@H]4CC[C@@H]5[C@H](CC[C@]6(C)C7C(C[C@@H]56)O[C@]5(CC[C@@H](C)CO5)[C@H]7C)[C@@]4(C)C[C@H]3O)OC(CO)C(O)C2O)C(O)C(O)C1O (stereo partly specified)"
metric = "TGI"
censoring_qualifier = "="
reported_measurement = 3.06

[[record]]
compound = "O=C1C[C@@H]2CCCC[C@@H]2C12SCCS2"
metric = "TGI"
censoring_qualifier = ">"
reported_measurement = 100

[[record]]
compound = "C=C(C)[C@H](O)C(O)CC(C)[C@@H]1CCC23CC12CCC1[C@@]2(C)CCC(OC(C)=O)C(C)(C)C2CC(OC2OC(COC(C)=O)C(O)C(O)C2O)[C@]13C (stereo partly specified)"
metric = "TGI"
censoring_qualifier = "="
reported_measurement = 12.5

[[record]]
compound = "O/N=C1\\CCc2cc3c(cc21)CCC3"
metric = "TGI"
censoring_qualifier = ">"
reported_measurement = 100

[[record]]
compound = "COc1ccc2c(c1)N=C1CSC(c3c(Cl)cccc3[N+](=O)[O-])N1C2 (stereo unspecified)"
metric = "TGI"
censoring_qualifier = ">"
reported_measurement = 100

[[record]]
compound = "OC(C/C(=N\\N=C(/CC(O)(C(F)(F)F)C(F)(F)F)c1ccccc1)c1ccccc1)(C(F)(F)F)C(F)(F)F"
metric = "TGI"
censoring_qualifier = ">"
reported_measurement = 10

[[record]]
compound = "COC(=O)[C@@]1(O)C[C@H]2O[C@]1(C)n1c3ccccc3c3c4c(c5c6ccccc6n2c5c31)C(=O)NC4"
metric = "TGI"
censoring_qualifier = "="
reported_measurement = 1.39

[[record]]
compound = "O=S1c2ccccc2SCSc2ccccc21"
metric = "TGI"
censoring_qualifier = ">"
reported_measurement = 100

[[record]]
compound = "CC1SC(=O)SC1C (stereo unspecified)"
metric = "TGI"
censoring_qualifier = ">"
reported_measurement = 100

[[record]]
compound = "CCCCCCCCCCCC[n+]1ccc(C(N)=O)cc1"
metric = "TGI"
censoring_qualifier = "="
reported_measurement = 4.26

[[record]]
compound = "CC1=C(C(=O)Nc2ccc(F)c(Cl)c2)C(c2cccc(Oc3ccccc3)c2)NC(=O)N1 (stereo unspecified)"
metric = "TGI"
censoring_qualifier = "="
reported_measurement = 21.7

[[record]]
compound = "COC(=O)CC1(O)C(/C=C/c2ccccc2)C(C(=O)OC)C(=O)C(C(=O)OC)C1C(=O)OC (stereo unspecified)"
metric = "TGI"
censoring_qualifier = ">"
reported_measurement = 100

[[record]]
compound = "O=Cc1ccc(O)c2ncccc12"
metric = "TGI"
censoring_qualifier = "="
reported_measurement = 52.5

[[record]]
compound = "Nc1cccc(C#Cc2cccc(C#Cc3cccc(N)n3)n2)n1"
metric = "TGI"
censoring_qualifier = ">"
reported_measurement = 100

[[record]]
compound = "COc1ccc2c(c1)CC1c3c(cc4c(c3-2)OCO4)CCN1C (stereo unspecified)"
metric = "TGI"
censoring_qualifier = "="
reported_measurement = 71.3

[[record]]
compound = "FC(F)(F)C1(C(F)(F)F)O[SiH]2(OC(C(F)(F)F)(C(F)(F)F)c3ccccc32)c2ccccc21"
metric = "TGI"
censoring_qualifier = "="
reported_measurement = 45.5

[[record]]
compound = "Fc1ccc(Nc2nnc(-c3ccccn3)s2)cc1"
metric = "TGI"
censoring_qualifier = ">"
reported_measurement = 100

[[record]]
compound = "C=C1CC[C@@H]2[C@](C)(COC(C)=O)[C@H](OC(C)=O)CC[C@@]2(C)[C@@H]1C/C=C1/C(=O)OC[C@H]1OC(C)=O"
metric = "TGI"
censoring_qualifier = "="
reported_measurement = 13.3

[[record]]
compound = "N/C(COc1ccc(Cl)cc1)=N\\NC(=O)c1ccncc1"
metric = "TGI"
censoring_qualifier = ">"
reported_measurement = 100

[[record]]
compound = "CCOC(=O)C(=CNC(=S)Nc1c(CC)cccc1CC)C(=O)OCC"
metric = "TGI"
censoring_qualifier = ">"
reported_measurement = 100

[[record]]
compound = "COc1ccc2c(c1)CCCN1Cc3ccccc3CC21 (stereo unspecified)"
metric = "TGI"
censoring_qualifier = ">"
reported_measurement = 100

